System: HCC-2998 colon
Test: NCI-60 one-dose screen, 48 h (100 = growth as untreated, 0 = no growth, -100 = all killed)
Conditions: 10 µM unless noted
About 83,000 compounds went through this panel and 20% of them were active in at least one assay; those are over-represented in the sample as a whole.
For each record, check the reported growth: if it is below 70% write fulfilled, else write not fulfilled.

1) O=C(Nc1ccccc1)Nc1nc2ccc([N+](=O)[O-])cc2s1; fulfilled
2) C/C=C/C=C1\C[C@H]2CO[C@H](O2)C1=O; not fulfilled
3) CN1CCN(c2ccc3c(C(N)=O)c(NC(=O)c4ccc(C(C)(C)C)cc4)sc3c2)CC1; not fulfilled
4) CCc1ccc(NC(=O)N[C@@H](Cc2cccc(C)c2)C(=O)N[C@@H]2C(=O)N3CCC[C@H]3C(=O)N3CCCC[C@H]3C(=O)N[C@@H](CO)C(=O)N3C[C@H](C)C[C@H]3C(=O)O[C@H]2C)c(F)c1; fulfilled
5) Cc1cc(-c2ccc3nc(N)sc3c2)nc2ccc3[nH]ncc3c12; fulfilled
6) CC(C)Sc1nc(NC2CC2)c(C#N)c(-c2ccccc2)n1; not fulfilled
7) C/C(=C(/C)C1CC1CCN(C(=O)c1ccccn1)S(=O)(=O)c1ccc(C)cc1)C1CCCCC1 (configuration not stated); not fulfilled
8) Nc1nc(-c2cccc([N+](=O)[O-])c2)c(N=Nc2ccccc2[N+](=O)[O-])s1; not fulfilled
9) COc1ccc2c(c1)oc1c3[nH]c4ccccc4c3c3c(c21)C(=O)N(O)C3=O; not fulfilled
10) O=C(O)c1ccc(-n2cc(CNc3ccc(F)cc3)c(-c3ccc(C(F)(F)F)cc3)n2)cc1; not fulfilled
11) CCCCCCNC(=O)Oc1ccc(/C(=C(\C)c2ccc(OC)cc2)c2ccc(OCCN(C)C)cc2)cc1; not fulfilled
12) COc1ccc([C@H]2[C@H](O)C(=O)N2c2cc(OC)c(OC)c(OC)c2)cc1; fulfilled
13) Cc1ccc(/C=C/CC(=O)Nc2ccc(C(=O)Nc3ccc(F)cc3N)nc2)cn1; fulfilled
14) CCNC(=O)Oc1ccc(/C(=C(/C)c2ccc(Cl)cc2)c2ccc(OCCN3CCCC3)cc2)cc1; not fulfilled
15) C/C(=N/Nc1nc(N/N=C(/C)c2ccc([N+](=O)[O-])cc2)nc(N2CCOCC2)n1)c1ccc([N+](=O)[O-])cc1; not fulfilled
16) CN(C)CCn1c2ccc(N)cc2c2nc3ccccc3nc21; fulfilled
17) C=CCn1c(SCC(=O)Nc2cccc(C(=O)/C=C/c3cc(OC)c(OC)c(OC)c3)c2)nc2ccccc2c1=O; not fulfilled
18) C/C(=C(/C)C1CC1CCN(C(=O)c1ccc([N+](=O)[O-])cc1)S(=O)(=O)c1ccc(C)cc1)C1CCCCC1 (configuration not stated); not fulfilled
19) N#Cc1ccc(S(=O)(=O)Nc2ccc(-c3cnc(N)[nH]3)cc2)cc1; not fulfilled
20) O=S(=O)(Nc1ccc(C2CC2)cc1)c1ccc(-c2cnc(C3CC3)o2)cc1; not fulfilled
21) C#CCOc1ccc(/C=N/Nc2nc(-c3cc(Cl)ccc3Cl)cs2)cc1; not fulfilled
22) Oc1ccc(CSc2nnc(-c3ccccc3)o2)c2cccnc12; fulfilled
23) Oc1ccc(CSc2nnc(-c3ccncc3)o2)c2cccnc12; fulfilled
24) CS(=O)(=O)c1nccc(-c2c(-c3ccc(F)c(OCCc4ccc(F)cc4)c3)nc3sccn23)n1; fulfilled
25) COc1ccc(C(=O)c2c(N)c(C#N)cn2-c2cccc(OC)c2)cc1; fulfilled
26) COc1ccc(-c2nnc(/N=C3/C(=O)Nc4ccc(Br)cc43)o2)cc1; not fulfilled
27) COc1ccc(-c2nc3cc(Cl)c(Cl)cc3n2CC(=O)N=Nc2c(O)[nH]c3ccc(Cl)cc23)cc1; fulfilled
28) NC(N)=NS(=O)(=O)c1ccc(N=NC2C(=O)NN(c3ccccc3)C2=O)cc1 (configuration not stated); not fulfilled
29) C=C(C)[C@@H]1CC[C@]2(C)[C@H](CC=C3[C@@H]4CC(C)(C)CC[C@]4(C(=O)NCC#CCN4CCN(C)CC4)CC[C@]32C)[C@@]1(C)CCC#N; fulfilled
30) COc1cc(/C=N/n2cnc3oc(-c4ccccc4)cc3c2=N)cc(CN2CCN(C)CC2)c1O; not fulfilled
31) Cc1ccc(S(=O)(=O)N/N=C/c2cn(-c3ccc(F)cc3)nc2-c2ccc(S(C)(=O)=O)cc2)cc1; not fulfilled
